Target Under Test: HLA-A*24:02
Experimental Details: IEDB peptide-MHC binding, purified MHC/competitive/radioactivity; filed as Kd, often an IC50 or EC50 that approximates it; bounds were set here for any values at or beyond the usual limits of such assays
Condition Set: source organism: SARS coronavirus Tor2
Entries and their Kd

>  <Seq>
EYPIIGDEL

>  <Kd>
14.1 µM

$$$$
>  <Seq>
IFWRNTNPI

>  <Kd>
≥ 31.5 µM

$$$$
>  <Seq>
CTFLLNKEMY

>  <Kd>
≥ 70.3 µM

$$$$
>  <Seq>
VAEMDGIQY

>  <Kd>
≥ 77.6 µM

$$$$
>  <Seq>
EFSSNVANY

>  <Kd>
≥ 32.2 µM

$$$$
>  <Seq>
HTLSIHDGY

>  <Kd>
≥ 77.6 µM

$$$$
>  <Seq>
GTFLCANEY

>  <Kd>
11.4 µM

$$$$
>  <Seq>
TPSGTWLTY

>  <Kd>
≥ 77.6 µM

$$$$
>  <Seq>
TVATSRTLSY

>  <Kd>
≥ 70.3 µM

$$$$
>  <Seq>
PVSAMVRMY

>  <Kd>
≥ 40.9 µM

$$$$
>  <Seq>
VYMPASWVM

>  <Kd>
12.6 µM

$$$$
>  <Seq>
TTTIKPVSY

>  <Kd>
≥ 77.6 µM

$$$$
>  <Seq>
ETPHLMGWDY

>  <Kd>
≥ 70.3 µM

$$$$
>  <Seq>
VYSDVETPHL

>  <Kd>
0.245 µM

$$$$
>  <Seq>
STGNYNYKY

>  <Kd>
≥ 77.6 µM

$$$$
>  <Seq>
IMLVYCFLGY

>  <Kd>
≥ 70.3 µM

$$$$
>  <Seq>
ASFYYIWKSY

>  <Kd>
≥ 28.6 µM

$$$$
>  <Seq>
AMVRMYIFF

>  <Kd>
4.46 µM

$$$$

###

Target Under Test: HLA-B*40:02
Experimental Details: IEDB peptide-MHC binding, purified MHC/competitive/radioactivity; filed as Kd, often an IC50 or EC50 that approximates it; bounds were set here for any values at or beyond the usual limits of such assays
Condition Set: source organism: Mammarenavirus guanaritoense
pKd: −log10 of the molar value.
Measure Name: pKd

>  <Seq>
FEEALNVALA

>  <Target Under Test>
HLA-B*40:02

>  <Assay Result>
6.55

$$$$

###

Target Under Test: HLA-A*32:07
Experimental Details: IEDB peptide-MHC binding, purified MHC/competitive/fluorescence; filed as Kd, often an IC50 or EC50 that approximates it; bounds were set here for any values at or beyond the usual limits of such assays
Condition Set: source organism: dengue virus type 1

>  <Seq>
ATYGWNLVK

>  <Kd>
77.4 nM

$$$$

###

Target Under Test: HLA-A*01:01
Experimental Details: IEDB peptide-MHC binding, purified MHC/competitive/radioactivity; filed as Kd, often an IC50 or EC50 that approximates it; bounds were set here for any values at or beyond the usual limits of such assays
Condition Set: source organism: Dengue virus 4 Philippines/H241/1956

>  <Seq>
LVQIENLEY

>  <Kd (nM)>
90.4

$$$$
>  <Seq>
FTDPSSVAA

>  <Kd (nM)>
1.71

$$$$
>  <Seq>
DTSEVHWNY

>  <Kd (nM)>
111

$$$$
>  <Seq>
YLKEEQDQQY

>  <Kd (nM)>
15600

$$$$
>  <Seq>
KLHSGVDVFY

>  <Kd (nM)>
2870

$$$$
